Reference source: FireProtDB (doi:10.1093/protein/7.9.1089)

B1: Ribonuclease, P00648 (parent)
chain: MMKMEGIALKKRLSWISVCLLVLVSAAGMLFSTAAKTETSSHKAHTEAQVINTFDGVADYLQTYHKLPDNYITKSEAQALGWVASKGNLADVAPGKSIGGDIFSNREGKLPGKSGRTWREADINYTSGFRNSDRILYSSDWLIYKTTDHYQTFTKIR

Variants of: B1
experimental.setup: Bacillus amyloliquefaciens; pH 4.4; Thermal; DSC; Sodium acetate/Acetic acid 6.08 mM/13.92 mM/; reversible: yes (>95%); structure 1BNI; whole UniProt chain shown
result.type: Tm (°C)

> print(dat)
    mutant.id  data.value
 1       T73G        47.6
 2      I135V        48.1
 3      S139A        44.5
 4       D69M        50.1
 5      I143V        49.2
 6       I98V          47
 7       D59G        49.7
 8       T63R          53
 9       D55A        49.7
10      R116M        45.9
11      R130Q        48.3
12      S138A        46.7
